Source of measurements: ChEMBL document CHEMBL1148556

- measurement-target: Metabotropic glutamate receptor 6 (Rattus norvegicus)
- Sequence (P35349 whole entry): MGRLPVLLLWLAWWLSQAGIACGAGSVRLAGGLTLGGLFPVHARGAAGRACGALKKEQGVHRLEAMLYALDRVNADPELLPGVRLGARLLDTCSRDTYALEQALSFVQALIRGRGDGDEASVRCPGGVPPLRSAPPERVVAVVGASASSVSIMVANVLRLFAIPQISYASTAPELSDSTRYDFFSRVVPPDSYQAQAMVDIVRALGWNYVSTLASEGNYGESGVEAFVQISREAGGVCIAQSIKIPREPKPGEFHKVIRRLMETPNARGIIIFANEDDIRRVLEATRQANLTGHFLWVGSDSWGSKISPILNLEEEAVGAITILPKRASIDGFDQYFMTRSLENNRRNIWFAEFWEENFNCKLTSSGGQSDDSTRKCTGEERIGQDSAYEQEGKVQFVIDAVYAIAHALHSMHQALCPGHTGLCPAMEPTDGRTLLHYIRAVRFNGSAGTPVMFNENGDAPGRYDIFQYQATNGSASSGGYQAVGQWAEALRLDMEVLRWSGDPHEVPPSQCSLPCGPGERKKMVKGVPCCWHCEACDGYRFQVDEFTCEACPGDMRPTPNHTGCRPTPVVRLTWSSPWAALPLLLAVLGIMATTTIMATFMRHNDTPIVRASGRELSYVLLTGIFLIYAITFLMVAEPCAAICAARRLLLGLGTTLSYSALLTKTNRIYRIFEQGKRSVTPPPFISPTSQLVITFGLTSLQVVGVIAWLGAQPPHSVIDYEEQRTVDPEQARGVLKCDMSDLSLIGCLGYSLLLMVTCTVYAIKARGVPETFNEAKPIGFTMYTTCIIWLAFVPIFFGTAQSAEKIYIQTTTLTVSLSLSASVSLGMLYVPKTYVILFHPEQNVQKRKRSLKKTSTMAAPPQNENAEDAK
- measurement-description: Activity at rat mGluR6 by measuring cAMP formation in CHO cells
observable: pEC50
Note: pEC50 values are expressed as the negative base-10 logarithm of concentration in M.

## Input I have this compound here, N[C@@H](CCP(=O)(O)O)C(=O)O , and I need its recorded pEC50.
## Output 6.47

## Input What about this compound? N[C@H](C(=O)O)[C@H]1C[C@@H]1P(=O)(O)O
## Output 4.89

## Input What about this compound? N[C@H](C(=O)O)[C@@H]1C[C@H]1P(=O)(O)O
## Output 4.34

## Input What about this compound? N[C@@H](CCC(=O)O)C(=O)O
## Output 5.12

----------
- measurement-target: Metabotropic glutamate receptor 4 (Rattus norvegicus)
- Sequence (P31423 whole entry): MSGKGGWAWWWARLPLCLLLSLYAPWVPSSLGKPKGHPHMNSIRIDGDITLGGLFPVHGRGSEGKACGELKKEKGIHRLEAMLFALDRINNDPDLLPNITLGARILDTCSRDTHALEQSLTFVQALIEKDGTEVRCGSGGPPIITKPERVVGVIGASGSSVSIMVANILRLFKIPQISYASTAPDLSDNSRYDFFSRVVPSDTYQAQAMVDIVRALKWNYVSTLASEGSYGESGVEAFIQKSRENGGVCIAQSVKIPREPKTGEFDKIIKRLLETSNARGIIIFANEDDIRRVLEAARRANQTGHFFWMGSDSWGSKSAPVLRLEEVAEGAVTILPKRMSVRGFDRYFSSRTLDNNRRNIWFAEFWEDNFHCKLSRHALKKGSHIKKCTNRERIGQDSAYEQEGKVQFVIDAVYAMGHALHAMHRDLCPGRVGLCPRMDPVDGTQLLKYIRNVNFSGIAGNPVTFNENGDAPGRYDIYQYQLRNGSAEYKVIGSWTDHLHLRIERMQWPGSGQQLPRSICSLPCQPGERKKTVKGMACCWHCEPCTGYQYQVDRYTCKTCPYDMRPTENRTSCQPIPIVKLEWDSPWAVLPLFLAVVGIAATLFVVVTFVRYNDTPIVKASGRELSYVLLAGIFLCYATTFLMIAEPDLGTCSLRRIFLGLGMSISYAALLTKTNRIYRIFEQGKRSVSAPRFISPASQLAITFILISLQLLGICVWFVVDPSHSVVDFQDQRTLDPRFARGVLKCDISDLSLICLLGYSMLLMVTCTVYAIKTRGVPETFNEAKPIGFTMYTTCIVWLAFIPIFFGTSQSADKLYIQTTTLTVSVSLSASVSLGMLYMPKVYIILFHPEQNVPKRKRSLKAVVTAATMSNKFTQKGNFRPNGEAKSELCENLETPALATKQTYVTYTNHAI
For each entry below, report its Ki value.
Provide only the numeric value, understood in µM.

## Input I have this molecule here, N[C@@H](CCC(=O)O)C(=O)O , and I need its recorded Ki.
## Output 3.4

## Input What about this molecule? N[C@H](C(=O)O)[C@H]1C[C@@H]1P(=O)(O)O
## Output 7.4

## Input What about this molecule? N[C@H](C(=O)O)[C@@H]1C[C@H]1P(=O)(O)O
## Output 53

## Input What about this molecule? N[C@@H](CCP(=O)(O)O)C(=O)O
## Output 0.16

----------
For each entry below, report its pKi value.
- measurement-target: Metabotropic glutamate receptor 8 (Rattus norvegicus)
- Sequence (P70579 whole entry): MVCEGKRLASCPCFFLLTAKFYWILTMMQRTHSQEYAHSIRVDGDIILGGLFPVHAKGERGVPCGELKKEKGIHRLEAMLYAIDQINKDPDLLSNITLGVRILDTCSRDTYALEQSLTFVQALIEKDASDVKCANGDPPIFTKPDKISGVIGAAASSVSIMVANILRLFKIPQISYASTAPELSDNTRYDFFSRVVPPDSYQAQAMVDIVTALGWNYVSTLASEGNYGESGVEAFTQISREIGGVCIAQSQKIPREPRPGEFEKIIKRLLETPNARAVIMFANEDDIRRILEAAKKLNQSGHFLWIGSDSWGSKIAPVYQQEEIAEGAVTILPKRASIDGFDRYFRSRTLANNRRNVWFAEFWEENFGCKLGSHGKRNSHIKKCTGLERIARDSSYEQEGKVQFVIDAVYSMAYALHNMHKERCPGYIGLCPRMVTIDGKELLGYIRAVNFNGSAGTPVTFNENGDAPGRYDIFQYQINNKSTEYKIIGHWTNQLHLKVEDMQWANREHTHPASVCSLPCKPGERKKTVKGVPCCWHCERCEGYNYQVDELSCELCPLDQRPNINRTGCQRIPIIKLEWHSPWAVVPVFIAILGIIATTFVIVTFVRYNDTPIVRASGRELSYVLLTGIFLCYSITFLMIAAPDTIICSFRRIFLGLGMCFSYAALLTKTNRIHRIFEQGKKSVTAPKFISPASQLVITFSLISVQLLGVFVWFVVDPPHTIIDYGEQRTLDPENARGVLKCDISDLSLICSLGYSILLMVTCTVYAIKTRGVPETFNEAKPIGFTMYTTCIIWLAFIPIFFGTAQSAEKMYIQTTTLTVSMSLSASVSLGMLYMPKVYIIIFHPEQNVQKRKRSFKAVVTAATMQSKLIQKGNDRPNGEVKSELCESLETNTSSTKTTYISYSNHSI
Note: pKi values are expressed as the negative base-10 logarithm of concentration in M.

## Input I have this compound here, N[C@@H](CCC(=O)O)C(=O)O , and I need its recorded pKi.
## Output 5.47

## Input What about this compound? N[C@H](C(=O)O)[C@@H]1C[C@H]1P(=O)(O)O
## Output 4.27

## Input What about this compound? N[C@@H](CCP(=O)(O)O)C(=O)O
## Output 5.72

## Input What about this compound? N[C@H](C(=O)O)[C@H]1C[C@@H]1P(=O)(O)O
## Output 4.20

----------
- measurement-target: UniProtKB P31423
- measurement-description: Functional activity at rat mGluR4
observable: pEC50
Note: pEC50 values are expressed as the negative base-10 logarithm of concentration in M.

## Input I have this compound here, N[C@H](C(=O)O)[C@H]1C[C@@H]1P(=O)(O)O , and I need its recorded pEC50.
## Output 5.03

## Input What about this compound? N[C@H](C(=O)O)[C@@H]1C[C@H]1P(=O)(O)O
## Output 4.31

## Input What about this compound? N[C@@H](CCP(=O)(O)O)C(=O)O
## Output 6.29

## Input What about this compound? N[C@@H](CCC(=O)O)C(=O)O [GLUTAMIC ACID]
## Output 5.21

----------
- measurement-target: Metabotropic glutamate receptor 5 (Rattus norvegicus)
- Sequence (P31424 whole entry): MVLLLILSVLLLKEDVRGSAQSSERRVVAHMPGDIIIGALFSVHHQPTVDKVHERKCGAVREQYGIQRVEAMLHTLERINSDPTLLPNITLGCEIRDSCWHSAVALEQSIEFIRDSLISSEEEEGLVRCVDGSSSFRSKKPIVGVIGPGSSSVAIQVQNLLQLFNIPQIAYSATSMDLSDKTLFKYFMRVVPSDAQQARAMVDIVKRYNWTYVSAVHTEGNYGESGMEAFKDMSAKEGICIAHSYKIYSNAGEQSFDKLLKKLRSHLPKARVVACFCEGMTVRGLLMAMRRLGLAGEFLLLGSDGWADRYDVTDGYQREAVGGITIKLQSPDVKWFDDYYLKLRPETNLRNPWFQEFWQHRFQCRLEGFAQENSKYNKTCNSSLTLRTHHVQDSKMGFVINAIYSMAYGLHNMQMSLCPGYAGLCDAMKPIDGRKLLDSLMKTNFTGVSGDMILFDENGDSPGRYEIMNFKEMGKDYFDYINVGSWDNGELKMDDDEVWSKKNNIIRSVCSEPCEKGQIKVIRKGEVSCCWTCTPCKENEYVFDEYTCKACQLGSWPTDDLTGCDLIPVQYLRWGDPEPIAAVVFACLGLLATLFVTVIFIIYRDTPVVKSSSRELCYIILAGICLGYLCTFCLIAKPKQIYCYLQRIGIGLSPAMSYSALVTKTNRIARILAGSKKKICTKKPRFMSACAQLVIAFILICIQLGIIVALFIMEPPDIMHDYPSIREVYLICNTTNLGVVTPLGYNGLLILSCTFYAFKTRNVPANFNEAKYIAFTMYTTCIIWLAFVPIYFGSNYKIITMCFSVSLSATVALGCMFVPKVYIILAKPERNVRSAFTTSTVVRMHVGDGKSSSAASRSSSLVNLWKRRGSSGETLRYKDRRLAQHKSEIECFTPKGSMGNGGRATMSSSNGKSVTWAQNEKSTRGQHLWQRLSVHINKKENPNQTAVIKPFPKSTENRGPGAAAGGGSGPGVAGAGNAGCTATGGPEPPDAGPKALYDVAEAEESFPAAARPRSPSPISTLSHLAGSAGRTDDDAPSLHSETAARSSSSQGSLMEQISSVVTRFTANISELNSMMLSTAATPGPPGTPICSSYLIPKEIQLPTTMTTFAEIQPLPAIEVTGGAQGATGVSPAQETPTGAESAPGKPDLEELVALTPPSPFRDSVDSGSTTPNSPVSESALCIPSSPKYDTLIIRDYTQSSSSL
- measurement-description: Activity at rat mGluR5 by measuring intracellular calcium concentration in CHO cells
observable: EC50

## Input I have this molecule here, N[C@H](C(=O)O)[C@H]1C[C@@H]1P(=O)(O)O , and I need its recorded EC50.
## Output > 1 mM

## Input What about this molecule? N[C@@H](CCP(=O)(O)O)C(=O)O
## Output > 1 mM

## Input What about this molecule? N[C@H](C(=O)O)[C@@H]1C[C@H]1P(=O)(O)O
## Output > 1 mM
